Biological target: mu opiate receptor (Rattus norvegicus, UniProt P33535)
Sequence (P33535 whole entry): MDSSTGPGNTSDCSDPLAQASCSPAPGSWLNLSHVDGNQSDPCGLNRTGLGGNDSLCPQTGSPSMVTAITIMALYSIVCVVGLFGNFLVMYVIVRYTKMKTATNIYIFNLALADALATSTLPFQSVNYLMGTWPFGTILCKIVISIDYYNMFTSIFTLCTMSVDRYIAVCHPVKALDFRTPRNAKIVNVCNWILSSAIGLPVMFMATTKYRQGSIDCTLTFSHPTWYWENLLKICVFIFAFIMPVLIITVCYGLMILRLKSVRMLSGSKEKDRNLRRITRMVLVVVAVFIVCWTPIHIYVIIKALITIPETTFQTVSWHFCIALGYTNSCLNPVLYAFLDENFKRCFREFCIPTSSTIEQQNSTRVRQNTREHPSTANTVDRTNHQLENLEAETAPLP
Where a name gives a salt, the structure may show the parent alone.
measurementName: pIC50
pIC50 here is simply -log10 of the concentration when that concentration is written in mol/L.

Recorded pIC50 for Cc1cc(O)cc(C)c1C[C@H](N)C(=O)N[C@H](C)C(=O)NCCCc1ccccc1 [Example 5, hydrochloride] with mu opiate receptor (Rattus norvegicus, UniProt P33535), please?
10.00

----------
Biological target: opiate receptors
Experiment: Opiate binding assay (displacement of 3H-Naloxone)
Set-up: species or system rat
Conditions: Table 1; 3H-Naloxone, rat brain membranes; hydrochloride
Where a name gives a salt, the structure may show the parent alone.
Reported IC50 by item:
Give the figure together with its unit, number first.

Cc1cc(O)cc(C)c1C[C@H](N)C(=O)N[C@H](C)C(=O)NCCCc1ccccc1.Cl [Example 4, hydrochloride] | 50 nM

Field: next compound
Query (compound): Cc1cc(O)cc(C)c1C[C@H](N)C(=O)N[C@H](C)C(=O)NCCCc1ccccc1 [Example 5, hydrochloride] ; field requested: IC50
27 nM
